- System: DeltatarO mutant
- assay_remarks: S. aureus survival, RN4220 and DeltatarO strains – OD600, teichoic acid synthesis inhibitors, primary screen (AID 463173)
- test_conditions: S. aureus RN4220 wild type/DeltatarO growth, OD600, 18 h, hits give low values, screened at 18.75 µg/mL (by protocol)
About 4,300 (8.3%) of roughly 52,000 compounds were called active. For the sample, actives were picked, then their nearest neighbours and some compounds at random.
test_readout: survival (%)
Write the number in % without appending the unit.

A selection of reference data follows.
CC(C)CCNC(=O)CCC(=O)N1Cc2ccccc2Oc2ncccc21    55
O=C(CCC(=O)N1Cc2ccccc2Oc2ncccc21)Nc1ccc(Cl)cc1    37
CCN(Cc1ccccc1)S(=O)(=O)c1ccc(F)c(C(=O)Nc2ccc(C(C)C)cc2)c1    101
CCCCN(Cc1ccco1)C(=O)c1cc2c(s1)-c1c(C)cccc1OC2    -2
CNC(=O)C1CCC(Cn2c(=O)c3sccc3n(CC(=O)NCc3ccccc3)c2=O)CC1 (stereo unspecified)    32

Proceed to the following item.
Sure, the documented survival for Cc1cc(C)cc(NC(=O)Cn2nnc(C(=O)Nc3cc(C)cc(C)c3)c2N)c1 is 74

----------
- Tested on: DeltatarO mutant
- assay_remarks: S. aureus survival, RN4220 and DeltatarO strains – OD600, teichoic acid synthesis inhibitors, primary screen (AID 463173)
- test_conditions: S. aureus RN4220 wild type/DeltatarO growth, OD600, 18 h, screened at 18.75 µg/mL (by protocol)
The whole screen tested about 52,000 compounds, of which about 4,300 (8.3%) were called active. Rule as the data show it: active = survival mostly below about 52% (no sharp cut-off); inactive = mostly above about 56%. The entries come from a sample that favours actives as a whole.
Pick one and only one: true (active), false (inactive)

Some solved cases for reference:
CCOC(=O)c1ccc(Nc2nc(C)cc(C)n2)cc1    false
CCOC(=O)c1cnc2c(CC)cccc2c1NCCO    false
CC(C)NC(=O)C(c1ccccc1)N1Cc2ccccc2C1=O (stereo not drawn)    false
COc1ccc(-c2csc3ncnc(Nc4ccc(OC)cc4OC)c23)cc1    false
CCc1ccc(Cn2c(CNS(=O)(=O)c3ccc([N+](=O)[O-])cc3)nc3cccnc32)cc1    true
COc1ccccc1NC(=O)c1ccc(-c2nc(COc3ccc(C)cc3)c(C)o2)cc1    false

Attention now shifts to the item below.
Short answer needed: outcome of this test for Brc1ccc(-c2cc(-c3ccccc3)no2)cc1 ? false

----------
- Test system: DeltatarO mutant
- assay_remarks: S. aureus survival, RN4220 and DeltatarO strains – OD600, teichoic acid synthesis inhibitors, primary screen (AID 463173)
- test_conditions: S. aureus RN4220 wild type/DeltatarO growth, OD600, 18 h, hits give low values, screened at 18.75 µg/mL (by protocol)
In all, about 52,000 compounds went through this assay and about 4,300 (8.3%) were called active. This excerpt belongs to a sample that is enriched for actives.
// boundary case: survival equal to 80% maps to false (0); strictly smaller maps to true (1)

COc1ccc(CC(=O)NCc2ccc3c(c2)CCN3C(=O)c2ccc(C)cc2)cc1OC    false (0)

Attention now turns to another entry.
Strictly below 80% in survival? CCOC(=O)C1CCCN(c2c(C(=O)c3ccc(OCC)cc3)cnc3ccccc23)C1 (centres undefined) true (1)

----------
- Test system: DeltatarO mutant
- assay_remarks: S. aureus survival, RN4220 and DeltatarO strains – OD600, teichoic acid synthesis inhibitors, primary screen (AID 463173)
- test_conditions: S. aureus RN4220 wild type/DeltatarO growth, OD600, 18 h, hits give low values, screened at 18.75 µg/mL (by protocol)
Among all 52,000 compounds or so, about 4,300 (8.3%) were called active. What follows is part of a selection rich in actives, with near analogues and random picks from the rest.
survival: recorded values
The reply should be a number in %, with the unit left off.

Cc1ccc(-c2nc(CNC(=O)Nc3ccccc3)c(C)o2)cc1    71
CCOC(=O)c1c(C)[nH]c(CCC(=O)NC(C)c2ccccc2)c1C (stereo not given)    94
COc1ccc(-c2cn3c(n2)sc2cc(C(=O)Nc4ccc(F)cc4Cl)ccc23)cc1    61
CC(C)(C)OC(=O)N1C(C(=O)O)CSC1c1cccc(Br)c1 (stereo not given)    101
COC(=O)c1ccc(NC(=O)CC2C(=O)N(c3ccccc3)C(=O)N2Cc2ccc(F)cc2)cc1 (stereo not given)    55
COc1ccc(CN2C(=O)N(c3ccc(F)cc3)C(=O)C2CC(=O)Nc2ccccc2)cc1 (stereo not given)    77
CC(=O)Nc1ccc(S(=O)(=O)NC2(C(F)(F)F)C(=O)Nc3c2c(=O)[nH]c(=O)n3-c2ccc(C)c(C)c2)cc1 (stereo not given)    81
O=C(O)C1C2C=CC(C2)C1C(=O)N1CCN(Cc2ccccc2)CC1 (stereo not given)    59
CCOc1ccccc1C1CC(=O)Nc2c1c(=O)n(C)c1ncnn21 (stereo not given)    164

Attention now shifts to the item below.
Data point: COCCN1Cc2cccc(C(=O)Nc3ccc(Cl)cc3Cl)c2C1=O ; survival = 59

----------
- Test system: DeltatarO mutant
- assay_remarks: S. aureus survival, RN4220 and DeltatarO strains – OD600, teichoic acid synthesis inhibitors, primary screen (AID 463173)
- test_conditions: S. aureus RN4220 wild type/DeltatarO growth, OD600, 18 h, hits give low values, screened at 18.75 µg/mL (by protocol)
Screen size: about 52,000 compounds; about 4,300 (8.3%) were called active. What follows is part of a selection rich in actives, with near analogues and random picks from the rest.
Item-by-item account of survival
// note: answer is a bare numeric in %

Recorded results for 3 molecules are shown here.
Cc1cc(OCC(=O)Nc2ccc(C(=O)OC3CCCCC3)cc2)cc(C)c1Cl    50
Cc1ccc(SCC(=O)Nc2ccc(O)c(-c3nc4cc(C)ccc4o3)c2)cc1    64
O=C(COc1ccc(Cl)cc1Cl)Nc1ccc(C(=O)OC2CCCCC2)cc1    57

Sample COc1cccc(-n2cc(C(=O)Nc3cccc(C(F)(F)F)c3)c3ccccc3c2=O)c1 ; survival observed: 61

Reported survival ( Cc1cccc(OCC(=O)Nc2ccc(Cl)c(-c3nc4ncccc4o3)c2)c1C ) = 62

Memo: COc1cc(OC)c(NC(=O)c2sc3nc4n(c(=O)c3c2C)CCCC4)cc1Cl , reported survival: 64

Note to self: survival recorded for COc1cc(NC(=O)c2sc3nc4n(c(=O)c3c2C)CCCCC4)cc(OC)c1OC was 42

// recorded survival for CC(=O)c1ccc(N2C(=O)N(CC(=O)c3ccc(F)cc3)c3ccccc3S2(=O)=O)cc1 : 102

# survival (molecule: O=C(c1ccc(F)cc1F)N1CCC(c2noc(-c3ccc(S(=O)(=O)N4CCCC4)cc3)n2)CC1 ) is 97

Entry Cc1ccc(C(C)C)c(OCC(=O)Nc2ccc(C(=O)OC3CCCCC3)cc2)c1 , survival reported as 33

----------
- Test system: DeltatarO mutant
- assay_remarks: S. aureus survival, RN4220 and DeltatarO strains – OD600, teichoic acid synthesis inhibitors, primary screen (AID 463173)
- test_conditions: S. aureus RN4220 wild type/DeltatarO growth, OD600, 18 h, screened at 18.75 µg/mL (by protocol)
Among all 52,000 compounds or so, about 4,300 (8.3%) were called active. No stated cut-off is given here; in the data, active means survival mostly below about 52% (no sharp cut-off); inactive means mostly above about 56%. For the sample, actives were picked, then their nearest neighbours and some compounds at random.
Use one of these outcomes when replying: YES = active, NO = inactive

Worked set:
CCOc1ccc(-n2nc(CO)c(C(=O)NCC(C)O)n2)cc1 (stereo unspecified)    YES
Cc1ccc(-n2nc(CO)c(C(=O)NCc3cccnc3)n2)cc1    NO
Cc1ccc(CNC(=O)c2nn(-c3ccc(Cl)cc3)nc2CO)cc1    NO
CCOc1ccc(-n2nc(CO)c(C(=O)NCCCc3ccccc3)n2)cc1    NO

Which result was noted for this compound in the test: CCc1ccc(-n2nc(CO)c(C(=O)NCCOC)n2)cc1 NO

Assay result, entry CCc1ccc(-n2nc(CO)c(C(=O)NCc3cccnc3)n2)cc1 — outcome? NO

----------
Quick reference for survival among some compounds
- Test system: DeltatarO mutant
- assay_remarks: S. aureus survival, RN4220 and DeltatarO strains – OD600, teichoic acid synthesis inhibitors, primary screen (AID 463173)
- test_conditions: S. aureus RN4220 wild type/DeltatarO growth, OD600, 18 h, hits give low values, screened at 18.75 µg/mL (by protocol)
Screen size: about 52,000 compounds; about 4,300 (8.3%) were called active. Many of the other results were omitted from the sample, so actives are more common in it than they were.
Reply numerically in %, unit not repeated.

Examples with their reported survival follow.
Cc1nnc(SCC(=O)O)o1    75
COc1cccc(N2CC(NC(=O)c3ccc(S(=O)(=O)N4CCCCC4)cc3)CC2=O)c1 (configuration not stated)    92
O=C(Cn1cnc2c(cnn2-c2ccccc2)c1=O)c1ccccc1    55
Cc1ccc(CCNC(=O)C2CCCN(Cc3nc(-c4cccc(Cl)c4)oc3C)C2)cc1 (configuration not stated)    25
CC1CCc2c(sc3nnn(CCCCOc4ccc(Cl)cc4)c(=O)c23)C1 (configuration not stated)    107
Cc1ccc(Cn2nnc3sc4c(c3c2=O)CCC(C)C4)cc1 (configuration not stated)    54
CC1CCc2c(sc3nnn(CC(=O)Nc4ccccc4Cl)c(=O)c23)C1 (configuration not stated)    71
COc1ccc(-c2noc(-c3ccc(NC4CCCCC4)c([N+](=O)[O-])c3)n2)cc1OC    68

The recorded survival for entry COc1ccc(-c2nc(SCC(=O)NC3CCCC3)c(-c3ccc(OC)cc3)[nH]2)cc1 equals 71

Notebook: C=CCn1c(C(NC(=O)c2ccc(Cl)cc2Cl)C(C)C)n[nH]c1=S (configuration not stated) , survival read as 81

Kindly note the recorded survival for COc1ccc(-c2noc(-c3ccc(NC4CCCC4)c([N+](=O)[O-])c3)n2)cc1OC , which is 55

// Cc1oc(-c2cccc(Cl)c2)nc1CN1CCCC(C(=O)NCCc2ccc(Cl)cc2)C1 (configuration not stated) : survival value = -6

The compound listed as CCc1ccccc1NC(=O)Cn1nnc2sc3c(c2c1=O)CCC(C(C)(C)C)C3 (configuration not stated) has a reported survival of 47

Recorded survival (compound COc1cc(-c2noc(-c3ccc(NC4CCCCC4)c([N+](=O)[O-])c3)n2)cc(OC)c1OC ): 76

Record Cc1ccc(C)c(N2CCN(C(=O)C3CCCN(Cc4nc(-c5cccc(Cl)c5)oc4C)C3)CC2)c1 (configuration not stated) , field survival: 78

The reported value for Cc1c(CNCc2ccc(Cl)cc2)c(C(=O)O)c(C)n1Cc1ccc(F)cc1 in terms of survival is 77

The measured survival associated with COc1ccccc1-c1noc(-c2ccc(NC3CCCCC3)c([N+](=O)[O-])c2)n1 reads 41

Short answer for CC1CCCCN1CCCNC(=O)c1cc(Sc2cccc(Cl)c2)nc2ccccc12 (configuration not stated) : survival was 68

Note to self: survival recorded for O=C(Nc1cccnc1)Nc1c[nH]c2c(Cl)cccc2c1=O was 89

The measured survival associated with COC(=O)c1cc2sccc2n1CC(=O)Nc1ccc(OC)c(OC)c1 reads 86

// survival value for COc1ccc(/C=C/c2nc(-c3ccccc3O)n(-c3ccccc3)n2)cc1OC : 13

Given item Cc1oc(-c2ccc(Cl)cc2)nc1CN1CCCC(C(=O)NCCc2ccc(Cl)cc2)C1 (configuration not stated) , the value recorded as its survival is 54

The recorded survival for Cc1ccccc1-c1noc(-c2ccc(NC3CCCC3)c([N+](=O)[O-])c2)n1 is 66

Lab book: survival of CCCCc1ccc(NC(=O)Cn2nnc3sc4c(c3c2=O)CCC(C)C4)cc1 (configuration not stated) noted as 58
